Exercise: state measured growth inhibition for each of the molecules provided.
experiment: NCI Yeast Anticancer Drug Screen. Data for the bub3 strain (AID 167); settings: S. cerevisiae bub3 mutant strain, at 50.0 µM, hits give high values
This is part of a sample that, as a whole, favours compounds with a hit. Of some 79,000 tested, about 15% had one in any assay. Active and inactive are the calls of the source. Rule as the data show it: active = growth inhibition above about 70%; inactive = the rest.

Returns the measured growth inhibition for the input molecule. Input: CSC(=S)N/N=C(\C)c1cccc(C)n1 99.2% (active)

Same for c1ccc2c(c1)-c1nc3ccccc3cc1C2N1CCOCC1 (configuration not stated) 49.2% (inactive)

Same for C/C(=N\NC(=S)N1CCCCC1)c1cccc(C)n1 89.2% (active)

Same for Fc1ccc(NC(=S)SCc2ccc3c(c2)OCO3)cc1F 91.8% (active)

Same for c1ccc(-c2ccnc3c2ccc2c(-c4ccccc4)ccnc23)cc1 90.3% (active)

Same for CNC(=O)OCc1c(COC(=O)NC)c(-c2ccc(-c3ccccc3)cc2)n(C)c1C -13.5% (inactive)

Same for CC(=O)[O][Bi]([c]1ccccc1)[c]1ccccc1 83.2% (active)

Same for Oc1ccc(NCn2c(=S)sc3ccccc32)cc1 73.2% (active)

Same for COC(=O)c1cc(-c2ccc(C)cc2)[nH]c(=O)c1C#N 52.6% (inactive)

Same for O=Cc1cccc2ccc3ccccc3c12 98.7% (active)

Same for O=C1NC(=O)C2C3C=CC(C3)C12 (configuration not stated) -3.55% (inactive)

Same for COc1ccc2ccc3ccccc3c2c1C=O -11.7% (inactive)
